Tested on: P388 leukemia ip, CD2F1 mice, survival T/C
Assay: NCI In Vivo Anticancer Drug Screen. Data for tumor model P388 Leukemia (intraperitoneal) in CD2F1 (CDF1) mice
Details: endpoint: median survival time; dose: 100.0 mg/kg/injection; schedule: Q01DX005 (ip); vehicle: Klucel (hydroxypropylcellulose) (HPC); higher = longer survival
Toxic doses and inconclusive results are not listed. Peptide text beside a SMILES is read from it.

molecule	T/C
NC(Cc1ccccc1)C(=O)NC(CCC(=O)O)C(=O)NC(CCC(=O)O)C(=O)O (stereo not drawn) (H-Phe-Glu-Glu-OH; configuration not given here)	100 % of control
COC(=O)C1C2CC3c4c(c5ccc(OC)cc5n4[N+](=O)[O-])CCN3CC2CC(OC(=O)c2cc(OC)c(OC)c(OC)c2)C1OC (stereo not given)	114 % of control
Nc1nc(CON2C(=O)c3ccccc3C2=O)cs1	99 % of control
O=c1c2sc3ccccc3c2ncn1CN1CCOCC1	121 % of control
CC(C)NCCCNC(=S)C(=S)NCCCNC(C)C	94 % of control
COc1cccc(C2Nc3ccccc3C(=O)N2N2CCOCC2)c1 (stereo not given)	94 % of control
Cc1cc(O)c(Br)cc1O	97 % of control
CC(NC(=O)C(c1ccccc1)c1ccccc1)C(=O)O (stereo not given)	107 % of control
CCC1(CC)C(=O)ON(C(C)(C)N2OC(=O)C(CC)(CC)C2=O)C1=O	104 % of control
Cc1cnnc2c3ccccc3nn12	101 % of control
NCCCNC(=O)c1ccccc1N	100 % of control
Cc1ccc2nc3[nH]c(=O)[nH]c(=O)c3c(C(N)=O)c2c1	94 % of control
O=c1[nH]nc(SCc2c(Cl)cccc2Cl)c(=O)[nH]1	111 % of control
Cc1nc2c(cnn2CN2CCCCC2)c(=O)n1-c1ccccc1	101 % of control
COc1ccc(N=C(C)c2c(O)n(-c3ccccc3)[nH]c2=O)cc1	104 % of control
NS(=O)(=O)c1cc([N+](=O)[O-])ccc1C(=O)OC1CCCCC1	113 % of control
CCC(Nc1nncs1)Nc1nncs1	99 % of control
O=C(OCCS(=O)(=O)CCOC(=O)ON1C(=O)CCC1=O)ON1C(=O)CCC1=O	109 % of control
CN1C=CC=CC1=C1C(=O)c2ccccc2C1=O	104 % of control
CN(C)c1nc(Cl)nc2c1nc(Cl)n2C1CCCCO1 (stereo not given)	90 % of control
COc1cccc2c1CCC(=O)C2C (stereo not given)	100 % of control
O=C(O)C[CH2][Sn]([Cl])([Cl])[CH2]CC(=O)O	98 % of control
COc1ccc2c(c1)N(S(=O)(=O)c1ccc(C)cc1)C/C(=C\N1CCN(c3ccccc3)CC1)C2=O	98 % of control
CCCCCCCCCCCCCCCCNC(=S)N=Nc1cc(C(C)C)c(NNC(=S)NCCCCCCCCCCCCCCCC)cc1C	99 % of control
CC(=O)O[C@H]1CC[C@@]2(C)[C@@H](CC[C@@H]3[C@@H]2CC[C@]2(C)C(=NCCO)CC[C@@H]32)C1	105 % of control
O=C(Nc1cc(Cl)cc(Cl)c1)OC1CC2CC1C1CC3OC3C21 (stereo not given)	99 % of control
O=C(CC1(O)C(=O)Nc2c(Cl)cccc21)c1cccs1 (stereo not given)	100 % of control
O=C(Nc1cccc(NC(=O)c2nn[nH]n2)n1)c1nn[nH]n1	105 % of control
O=[N+]([O-])c1cc2c(c([N+](=O)[O-])c1)OC(C(Cl)(Cl)Cl)OC2C(Cl)(Cl)Cl (stereo not given)	103 % of control
CCCCCNc1ncnc2c(C)[nH]nc12	90 % of control
CS(=O)(=O)N/N=C1/C=C2C/C(=N\NS(C)(=O)=O)C=C2C1	96 % of control
C=CCC1=C(CC)C(=O)c2ccccc2C1=O	100 % of control
O=C(O)c1cccc2c1C(=O)N(c1ccc3c(c1)Cc1ccccc1-3)C2=O	95 % of control
O=C(O)c1cccc2c1-c1ccccc1C2=O	100 % of control
O=C(NC(Cc1ccc(Br)cc1)C(=O)O)c1cccc(Br)c1 (stereo not given)	102 % of control
CC(C)(C)Oc1ccc(CC(NC(=O)OCC2c3ccccc3-c3ccccc32)C(=O)O)cc1 (stereo not given)	120 % of control
CC(=O)NC1C(=O)CC(c2ccccc2)N(C)C1c1ccccc1 (stereo not given)	97 % of control
COc1ccc(-c2cnnc3c(-c4cccc(C(F)(F)F)c4)cnn23)cc1	93 % of control
O=[N+]([O-])c1cccc(C(Nc2nncs2)Nc2nncs2)c1	95 % of control
O=C1c2ccccc2C(=O)C1C(=Nc1ccccc1Cl)c1ccccc1	94 % of control
CC1(C)COC(=O)/C1=C/C#N	98 % of control
Cc1[nH]nc2oc(=O)c3ccccc3c12	102 % of control
CCOP(=O)(Nc1ccc2c(c1)Cc1c-2cc(Cl)c(NC(C)=O)c1Cl)OCC	97 % of control
CC(=O)[C@H]1C[C@H](O)[C@H]2[C@@H]3CCC4=CC(=O)CC[C@]4(C)[C@H]3C[C@@H](O)[C@@]21C	100 % of control
CC(Cc1cccc2ccccc12)C(N)=O (stereo not given)	99 % of control

----------
Tested on: P388 leukemia ip, CD2F1 mice, survival T/C
Assay: NCI In Vivo Anticancer Drug Screen. Data for tumor model P388 Leukemia (intraperitoneal) in CD2F1 (CDF1) mice
Conditions: endpoint: median survival time; dose: 400.0 mg/kg/injection; schedule: Q04DX002 (ip); vehicle: Klucel (hydroxypropylcellulose) (HPC); higher = longer survival
Toxic doses and inconclusive results are not listed.
List of T/C values.
reported.property: T/C

                                   compound          measured
0       O=c1[nH]c2c(c3c1CCCC3)CC1(CC2)OCCO1  108 % of control
1  S=C(N\N=C/C(/C=C/c1ccccc1)=N\NC(=S)Nc1ccc(Br)cc1)Nc1ccc(Br)cc1   95 % of control
2  CCOC(=O)C(Nc1cc([N+](=O)[O-])ccc1C(=O)OC(C)C)(OC(C)C)C(=O)OCC   90 % of control
3  CC(C)(C)c1cc(C(C)(C)O)c2c(c1)C(C)(C)OS2(=O)=O   97 % of control
4  COc1ccc(NS(=O)(=O)c2ccc(N=Cc3c4ccccc4nc4ccccc34)cc2)nn1   89 % of control
5               CCCCCn1c(Cl)c(C=O)c2ccccc21  100 % of control
6  COC(=O)C1NC(C)(C(=O)OC)C2C(=O)NC(=O)C12 (configuration not stated)   88 % of control

----------
Test system: P388 leukemia ip, CD2F1 mice, survival T/C
Experiment: NCI In Vivo Anticancer Drug Screen. Data for tumor model P388 Leukemia (intraperitoneal) in CD2F1 (CDF1) mice
Conditions: endpoint: median survival time; dose: 75.0 mg/kg/injection; schedule: Q01DX009 (ip); vehicle: saline with Tween-80
Toxic doses and inconclusive results are not listed. The calls were made as follows: active = survival T/C of 150% or more; inactive = T/C below 125% in these data.
Labels: YES (active), NO (inactive)

In [3]: df
Out[3]:
                                   compound  discrete_label
0  Nc1ncnc2c1ncn2C1OC(CO)C(O)C1O (centres undefined)              NO
1  CC1(C)N=C(N)N=C(N)N1c1ccc(CCCCc2ccc(S(=O)(=O)F)cc2Cl)c(Cl)c1             YES
2                      CCc1ccc(C(C)(C)C)cc1              NO
3                  Cc1cn(O)c(=N)c(C(N)=O)n1              NO

----------
Test system: P388 leukemia ip, CD2F1 mice, survival T/C
Experiment: NCI In Vivo Anticancer Drug Screen. Data for tumor model P388 Leukemia (intraperitoneal) in CD2F1 (CDF1) mice
Conditions: endpoint: median survival time; dose: 50.0 mg/kg/injection; schedule: Q01DX009 (ip); vehicle: distilled water + Tween-80; higher = longer survival
Toxic doses and inconclusive results are not listed.
List of T/C values.
reported.property: T/C

>>> print(df.to_string())
                                 cpd_smiles                           measured_target  reported_property          measured
0  COc1cc(OC)c(OC)cc1/C=N/NC(=O)N/N=C/c1cc(OC)c(OC)cc1OC  P388 leukemia ip, CD2F1 mice, survival T/C                T/C  108 % of control
1   Cc1nc(C(=O)OCc2ccccc2)cc(OCc2ccccc2)c1C  P388 leukemia ip, CD2F1 mice, survival T/C                T/C   95 % of control
2     CC1(C)CC(=O)C=C(OS(=O)(=O)C(F)(F)F)C1  P388 leukemia ip, CD2F1 mice, survival T/C                T/C   98 % of control
3               Nc1nc(N)nc(CCC(Cl)(Cl)Cl)n1  P388 leukemia ip, CD2F1 mice, survival T/C                T/C   95 % of control

These entries and their values trace back to PubChem BioAssay AID330.
